- assay method text: qHTS for Inhibitors of the Aldehyde Dehydrogenase Family (ALDH1A2, ALDH1A3, ALDH2, ALDH3A1) (AID 2061307); further: nearly all actives have a fitted effect of over 50% in size
- condition parameters: ALDH inhibition qHTS; series mostly up to 50.3 µM
Inconclusive results are not listed. Activity calls are given as the source filed them. The call rests on the fitted dose curve; in most records, active means well fitted inhibition curve with a large enough effect; inconclusive means small, poorly fitted or top-dose-only effect; inactive means no such curve, though single readings can be large or run the other way.
Choose the fitting class; nothing outside YES = active, NO = inactive is accepted.

Use these answered entries as a reference point.
O=C1N/C(=C\c2ccco2)C(=O)N1Cc1ccccc1 ... YES
CC(C)(O)c1ccccc1CC[C@H](SCC1(CC(=O)O)CC1)c1cccc(/C=C/c2ccc3ccc(Cl)cc3n2)c1 ... YES
CC(C)Oc1ccc(-c2nc(C(=O)Nc3ncn[nH]3)cs2)cc1 ... YES
COc1ccc(C2CC(=O)Nc3nc(N4CCCCC4)sc32)c(OC)c1 (centres undefined) ... NO
O=C(O)c1cccc(COc2cccc([N+](=O)[O-])c2)c1 ... YES

Please state the recorded outcome for this molecule: COc1ccc(C(=O)N(Cc2ccco2)Cc2ccco2)c(O)c1
YES

What did the test return for Cc1cnc(CNc2nc(-c3ccccc3Cl)nc3ccccc23)cn1 ?
NO

What did the test return for O=C(N/N=C/c1ccc(Sc2nc3ccccc3s2)o1)c1cccc(F)c1 ?
YES

Query: recorded result category for Cc1ccc(C)n1-c1sccc1C#N in this test
YES

Which outcome was entered for the molecule CCOc1ccc(CCNC(=O)c2cc3c(s2)CCC3)cc1OCC in this test?
NO

Recorded call for NCC(=O)Nc1cncc(-c2nn3c(=O)cc(N4CCNCC4)nc3s2)c1 ?
NO

Write down the call the test reported for this molecule. Item: CCOc1ccc(NC(=O)CSCC(=O)Nc2ccc(C)cc2)cc1
NO

Which result was noted for this molecule in the test: CC(=O)c1ccc(NC(=O)c2cc(S(=O)(=O)N3CCOCC3)ccc2C)cc1
NO
